Target: Cruzipain (Trypanosoma cruzi)
Experiment: Second order rate constant for inactivation of cruzain of Trypanosoma cruzi
Listing of recorded K ass by entry.
Output spec: scalar in M⁻¹ s⁻¹, unitless text.

| SMILES_REPRESENTATION | QUANTITY_MEASURED | RECORDED_MEASUREMENT |
| --- | --- | --- |
| CN1CCN(C(=O)N[C@@H](Cc2ccccc2)C(=O)N[C@H](/C=C/S(=O)(=O)c2ccccc2)CCc2ccccc2)CC1 | K ass | 420000 |
| O=C(N[C@H](/C=C/S(=O)(=O)Oc1ccccc1)CCc1ccccc1)[C@H](Cc1ccccc1)NC(=O)N1CCOCC1 | K ass | 1.02e+07 |
| CN1CCN(C(=O)N[C@@H](Cc2ccccc2)C(=O)N[C@H](/C=C/S(=O)(=O)NOCc2ccccc2)CCc2ccccc2)CC1 | K ass | 6.48e+06 |
| CN1CCN(C(=O)N[C@@H](Cc2ccccc2)C(=O)N[C@H](/C=C/S(=O)(=O)Oc2ccccc2)CCc2ccccc2)CC1 | K ass | 720000 |
| O=C(N[C@@H](Cc1ccccc1)C(=O)N[C@H](/C=C/S(=O)(=O)Cc1ccccc1)CCc1ccccc1)OCc1ccccc1 | K ass | 1.4e+06 |

K ass measured on O=C(N[C@@H](Cc1ccccc1)C(=O)N[C@H](/C=C/S(=O)(=O)Oc1ccccc1)CCc1ccccc1)OCc1ccccc1 = 1.68e+07
